experimental target: Mas-related G-protein coupled receptor member X1 (Homo sapiens) (UniProt Q96LB2)
Sequence (Q96LB2 whole entry, looked up): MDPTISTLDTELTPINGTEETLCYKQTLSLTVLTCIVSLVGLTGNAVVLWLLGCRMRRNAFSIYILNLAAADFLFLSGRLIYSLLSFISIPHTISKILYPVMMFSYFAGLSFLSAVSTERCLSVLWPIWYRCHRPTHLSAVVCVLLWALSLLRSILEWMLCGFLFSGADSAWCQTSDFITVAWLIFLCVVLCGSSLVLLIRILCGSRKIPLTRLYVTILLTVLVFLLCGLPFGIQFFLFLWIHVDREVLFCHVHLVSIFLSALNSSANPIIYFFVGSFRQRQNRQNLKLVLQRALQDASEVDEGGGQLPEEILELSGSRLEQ
experimental details: blockers of BAM8-22 MrgX1 calcium response – HEK293 cells, Fluo-4 calcium flux, confirmation (AID 602420)
measurement context: MrgX1-HEK293, BAM8-22 calcium flux, at 10 µM
Out of some 2,300 compounds screened, about 430 (19%) were called active.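 How the source made its calls: active means remaining agonist calcium response no higher than 100% minus 3 SD of agonist-only control wells, with starting fluorescence near control levels; inactive means the rest.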 Not all results are given here.
Possible outcomes: active, inactive

INSERT INTO measurements (molecule, cat) VALUES
  ('CN(C)CCn1c(=S)[nH]c2ccc(Cl)cc2c1=O', 'inactive'),
  ('CCC1CCCCN1CCNC(=O)c1[nH]c(C)c(C(C)=O)c1C (stereo not drawn)', 'inactive'),
  ('Cc1ccc(Cc2cnc(N)s2)o1', 'inactive'),
  ('CC(C)NC(=S)Nc1cccc2cnccc12', 'active'),
  ('CCOc1cc(-c2conc2N)cc(OCC)c1OCC', 'inactive'),
  ('Cc1nc(N2CCN(c3ccccn3)CC2)c2c(C)c(C(=O)Nc3ccc(F)c(Cl)c3)sc2n1', 'active'),
  ('CCc1cc(=O)oc2cc(C)cc(OCC(=O)N3CCC[C@@H]3C(=O)O)c12', 'inactive'),
  ('CCNC(=O)c1c(O)c2cccc3c2n(c1=O)CC3', 'inactive'),
  ('N#CC1=C(N)Oc2c(sc3ccccc23)C1c1ccco1 (stereo not drawn)', 'inactive'),
  ('Cc1ccc(C(=O)COC(=O)CCN2C(=O)C3C4CC(C(Br)C4Br)C3C2=O)cc1 (stereo not drawn)', 'inactive'),
  ('Cc1cccn2c(=O)c(/C=C3\SC(=S)N(CC(C)C)C3=O)c(NCCCOC(C)C)nc12', 'active'),
  ('COc1ccc([N+](=O)[O-])cc1NC(=O)COC(=O)/C=C/c1ccco1', 'inactive'),
  ('CCOC(=O)C1=C(O)CSC1=Nc1cccc(Cl)c1', 'inactive'),
  ('CC(Oc1ccc(F)cc1)C(=O)Nc1ccccc1C(=O)NC1CC1 (stereo not drawn)', 'inactive'),
  ('COCc1nnc(NC(=O)c2ccc3c(c2)OCO3)s1', 'inactive'),
  ('CCN(C(=O)CSc1nnc2ccccn12)C1CCS(=O)(=O)C1 (stereo not drawn)', 'inactive'),
  ('O=C(CSc1c2c(nc3ccc(Cl)cc13)CCCC2)NCc1ccco1', 'inactive'),
  ('Cc1cccc(-n2c(Cc3cc(=O)[nH]c(=O)[nH]3)nnc2SC(C)C)c1', 'inactive');

* * *

experimental target: Mas-related G-protein coupled receptor member X1 (Homo sapiens)
experimental details: blockers of BAM8-22 MrgX1 calcium response – HEK293 cells, Fluo-4 calcium flux, confirmation (AID 602420)
measurement context: MrgX1-HEK293, BAM8-22 calcium flux, at 10 µM
The campaign covered roughly 2,300 compounds. About 430 (19%) were called active.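 How the source made its calls: active means remaining agonist calcium response no higher than 100% minus 3 SD of agonist-only control wells, with starting fluorescence near control levels; inactive means the rest.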 Not all results are given here.
Possible outcomes: yes for active, no for inactive

INSERT INTO assay_data (compound, cat) VALUES
  ('Cc1cccc(NC(=O)COc2ccccc2C)n1', 'no'),
  ('Cc1cc(Nc2cc(N3CCN(C)CC3)nc(Sc3ccc(NC(=O)C4CC4)cc3)n2)n[nH]1', 'yes'),
  ('CCCCOC(=O)CNc1nnc(SCC(=O)OCC)[nH]c1=O', 'yes'),
  ('CCc1nnc(NC(=O)CSc2nc3c(c(=O)n2-c2ccccc2OC)SCC3)s1', 'no'),
  ('CCCCC(=O)Nc1ccc2c(c1)C(=O)NC2=O', 'no'),
  ('Clc1ccc(C=NC23CN4CN(CN(C4)C2)C3)cc1', 'no'),
  ('O=C(Cc1ccccn1)c1ccc(O)cc1O', 'yes'),
  ('Cc1ccc(Nc2nc(-c3ccc(O)cc3O)cs2)nc1', 'yes'),
  ('CCOC(=O)c1c(C)[nH]c(=S)c(C#N)c1-c1ccccc1', 'no'),
  ('CCOC(=O)Cc1csc(SCc2cc(=O)oc3cc(O)ccc23)n1', 'yes'),
  ('O=C(CSc1ncccn1)NC(=O)NCc1ccccc1', 'no'),
  ('S=C(NCc1ccc(Cl)cc1)NC12CC3CC(CC(C3)C1)C2', 'yes'),
  ('CCCCCCCCCCOC(=O)Cn1c(COc2cccc(OC)c2)[n+](C)c2ccccc21', 'yes'),
  ('O=C(Nc1ccccc1Cl)N1CCN(c2ccc3nncn3n2)CC1', 'no'),
  ('FC(F)Oc1ccc(NC(=S)NCc2ccco2)cc1Cl', 'no'),
  ('Clc1ccc(-c2nc3ccccn3c2CN2CCSCC2)cc1', 'no'),
  ('O=C1CCCN1CCCNC(=S)Nc1ccc(F)c(Cl)c1', 'yes'),
  ('O=C(Nc1ccc(Cl)cc1)Nc1ccc(Oc2cccnc2)nc1', 'yes'),
  ('Cc1ccc2cc(/C=N/Nc3ccc(C(=O)O)cc3)c(Cl)nc2c1', 'yes'),
  ('O=C(Cc1nc2ccccc2[nH]c1=O)c1ccc(Cl)cc1', 'yes'),
  ('O=C(c1cccs1)C1C(c2ccc(Br)cc2)NC(=S)NC1(O)C(F)(F)F (stereo unspecified)', 'no'),
  ('Cc1nccn1CCC1CCCCN1C(=O)CCc1nnc(-c2ccsc2)o1 (stereo unspecified)', 'no'),
  ('CN1C(CC(=O)Nc2ccc(Br)cc2)c2ccccc2CC1(C)C (stereo unspecified)', 'no'),
  ('Cc1ccc(C(C(=O)NC2CCCCC2)N(C(=O)c2csnn2)C2CC2)o1 (stereo unspecified)', 'no'),
  ('Cc1ccc2nc(-c3ccc(NC(=O)c4cccnc4)cc3)oc2c1', 'yes'),
  ('CCOC(=O)CNC(=O)CSc1nc2cccnc2n1CC', 'no'),
  ('COc1cc2c(cc1O)C(SC)=NC(C)(C)C2', 'yes'),
  ('O=S(=O)(c1ccc2ccccc2c1)N1CCN(S(=O)(=O)N2CCOCC2)CC1', 'no'),
  ('C=CCNC(=O)c1cc(-c2ccccc2O)on1', 'yes'),
  ('CCSc1nsc(NC(=O)Nc2cccc(C(C)=O)c2)n1', 'no'),
  ('Cc1ccc2nc(-c3ccc(NC(=O)CN(C)S(=O)(=O)c4ccccc4)cc3)sc2c1', 'no'),
  ('O=C(C1CCN(S(=O)(=O)c2cnc[nH]2)CC1)N1CCN(Cc2ccc3c(c2)OCO3)CC1', 'no'),
  ('COc1cc(C2/C(=C(\O)c3ccc4c(c3)CC(C)O4)C(=O)C(=O)N2Cc2ccco2)ccc1O (stereo unspecified)', 'no'),
  ('FC(F)(F)c1cc(-c2cccs2)nc(NCc2ccco2)n1', 'no'),
  ('Cc1cc(=O)oc2cc(NC(=O)C3CC(=O)N(Cc4ccccc4)C3)ccc12 (stereo unspecified)', 'no'),
  ('C(=N\n1cnnc1)/c1cccnc1', 'no'),
  ('Cc1cc(C)n(CCNC(=O)CC2C(=O)NCCN2Cc2ccc(C)o2)n1 (stereo unspecified)', 'no'),
  ('COc1ccc(S(=O)(=O)N2CCOCC2)c(C)c1C', 'no'),
  ('CCC(C)c1ccccc1N1CC(C(=O)N2CCN(S(=O)(=O)c3ccc(F)cc3)CC2)CC1=O (stereo unspecified)', 'yes'),
  ('O=c1cc(CSc2ccccn2)nc(N2CCN(c3ccccc3)CC2)[nH]1', 'no'),
  ('CCCCCCCCCCOC(=O)Cn1c(COc2ccc(C)cc2)[n+](C)c2ccccc21', 'no'),
  ('COc1cc(CCC(=O)Nc2ccncc2Cl)cc(OC)c1OC', 'no'),
  ('CC(=O)N(C1=C(Cl)C(=O)c2ccccc2C1=O)c1ccc(C(=O)O)cc1', 'no'),
  ('CC(=O)N(C)c1ccc(NC(=O)C(F)(F)F)cc1', 'no'),
  ('O=C(O)CSC(NC(=O)c1cccnc1)(C(F)(F)F)C(F)(F)F', 'no'),
  ('CC(C)OCCCNc1ncnc2c1[nH]c1ccc(F)cc12', 'no');
